target: human MGL from HeLa cells (Homo sapiens (Human)); test: MGL in vitro activity assay ([glycerol-1,3-3H]-oleoyl glycerol cleavage, activated carbon filter); format: biochemical; settings: 300 nM [Glycerol-1,3-3H]-oleoyl glycerol, endogenously expressed MGL from HeLa cells, one hour incubation; read-out: MGL IC50
MEASUREMENT_TYPE: pIC50
Units for pIC50: none; it is -log10 of a concentration expressed in mol/L.

Ask: Report pIC50 for O=C1N[C@]2(CO1)C[C@H](C(=O)N1CC3CC3(c3cccc(Oc4ccccc4)c3)C1)C2 (mixture of isomers) [Example 29] tested on human MGL from HeLa cells (Homo sapiens (Human)).
Result: 8.82

Ask: Report pIC50 for CC(C)c1ccc(C23CC2CN(C(=O)[C@H]2C[C@]4(COC(=O)N4)C2)C3)cc1 (mixture of isomers) [Example 9] tested on human MGL from HeLa cells (Homo sapiens (Human)).
Result: 8.66

Ask: Report pIC50 for Cc1ccc(C23CCN(C(=O)[C@H]4C[C@]5(COC(=O)N5)C4)CC2C3)cc1F (mixture of isomers) [Example 46] tested on human MGL from HeLa cells (Homo sapiens (Human)).
Result: 8.43

Ask: Report pIC50 for O=C1N[C@]2(CO1)C[C@H](C(=O)N1CC3CC3(c3cccc(C(F)(F)F)c3)C1)C2 (mixture of isomers) [Example 23] tested on human MGL from HeLa cells (Homo sapiens (Human)).
Result: 7.85

---

Biological target: human MGL from HeLa cells (Homo sapiens (Human))
Experiment: MGL in vitro activity assay ([glycerol-1,3-3H]-oleoyl glycerol cleavage, activated carbon filter)
Assay type: biochemical
Settings: 300 nM [Glycerol-1,3-3H]-oleoyl glycerol, endogenously expressed MGL from HeLa cells, one hour incubation; read-out: MGL IC50
Experimental: The assay consists of combining endogenously expressed MGL from HeLa cells with test compounds, adding[glycerol-1,3-^3H]-oleoyl glycerol, incubating for one hour, and then measuring the amount of cleaved[1,3-^3H]-glycerol that passes through an activated carbon filter. The amount of cleaved, tritiated glycerol passing through the carbon filter is proportional to the activity of the MGL enzyme in a particular well/test condition. […]
MEASUREMENT_TYPE: pIC50
Units for pIC50: none; it is -log10 of a concentration expressed in mol/L.

Ask: What pIC50 value was documented for this compound, O=C1CCC2(CC(C(=O)N3CC[C@@]4(c5ccc(OC(F)(F)F)cc5)C[C@H]4C3)C2)N1 (relative stereo) ?
Result: 7.38

Ask: What pIC50 value was documented for this compound, CC(C)c1ccc(C23CC2CN(C(=O)[C@H]2C[C@]4(CCC(=O)N4)C2)C3)cc1 (mixture of isomers) ?
Result: 7.85

Ask: What pIC50 value was documented for this compound, Cc1c([C@H]2[C@@H]3CN(C(=O)[C@H]4C[C@]5(COC(=O)N5)C4)C[C@@H]32)cccc1C(F)(F)F ?
Result: 7.11

Ask: What pIC50 value was documented for this compound, CC(C)(C)c1cccc([C@@H]2[C@H]3CN(C(=O)[C@H]4C[C@]5(COC(=O)N5)C4)C[C@]32C)c1 (stereo in doubt) ?
Result: 8.08

Ask: What pIC50 value was documented for this compound, Cc1ccc([C@H]2[C@@H]3CN(C(=O)[C@H]4C[C@]5(COC(=O)N5)C4)C[C@@H]32)cc1C(F)(F)F ?
Result: 8.36

Ask: What pIC50 value was documented for this compound, CC(C)c1ccc([C@]23C[C@H]2CN(C(=O)[C@H]2C[C@]4(COC(=O)N4)C2)C3)cc1 (stereo in doubt) ?
Result: 8.64

---

biological target: human MGL from HeLa cells (Homo sapiens (Human), UniProt Q99685); test: MGL in vitro activity assay ([glycerol-1,3-3H]-oleoyl glycerol cleavage, activated carbon filter); type: biochemical; conditions: 300 nM [Glycerol-1,3-3H]-oleoyl glycerol, endogenously expressed MGL from HeLa cells, one hour incubation; read-out: MGL IC50
Sequence (Q99685 whole entry): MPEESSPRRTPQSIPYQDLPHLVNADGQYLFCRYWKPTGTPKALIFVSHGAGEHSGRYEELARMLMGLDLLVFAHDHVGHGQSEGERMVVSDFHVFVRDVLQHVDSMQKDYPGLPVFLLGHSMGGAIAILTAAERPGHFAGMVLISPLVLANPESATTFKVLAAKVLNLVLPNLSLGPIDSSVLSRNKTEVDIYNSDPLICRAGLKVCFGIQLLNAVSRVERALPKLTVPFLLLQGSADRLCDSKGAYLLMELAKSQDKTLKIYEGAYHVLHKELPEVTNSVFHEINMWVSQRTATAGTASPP
pIC50: −log10 of the molar value.
Could you label it true if measured pIC50 is 8 or higher, and false otherwise?

Ask: Could you verify whether the entry CC(C)(C(=O)O)c1cccc([C@H]2[C@@H]3CN(C(=O)[C@H]4C[C@]5(COC(=O)N5)C4)C[C@@H]32)c1 shows pIC50 of no less than 8?
Result: false

Ask: Could you verify whether the entry O=C1N[C@]2(CO1)C[C@H](C(=O)N1CCC3(c4cccc(C5CC5)c4)CC3C1)C2 (mixture of isomers) shows pIC50 of no less than 8?
Result: true

Ask: Could you verify whether the entry C[C@]12CN(C(=O)[C@H]3C[C@]4(COC(=O)N4)C3)C[C@H]1[C@@H]2c1cccc(C(F)(F)F)c1 (racemic) shows pIC50 of no less than 8?
Result: false

Ask: Could you verify whether the entry O=C1N[C@]2(CO1)C[C@H](C(=O)N1CC[C@@]3(c4ccccc4)C[C@H]3C1)C2 shows pIC50 of no less than 8?
Result: false

Ask: Could you verify whether the entry O=C1CC[C@]2(C[C@H](C(=O)N3CCC4(c5cccc(C6CC6)c5)CC4C3)C2)N1 (mixture of isomers) shows pIC50 of no less than 8?
Result: true

Ask: Could you verify whether the entry CCc1ccc(C23CC2CN(C(=O)[C@H]2C[C@]4(COC(=O)N4)C2)C3)cc1 (mixture of isomers) shows pIC50 of no less than 8?
Result: true

Ask: Could you verify whether the entry Cc1ccc([C@@]23CCN(C(=O)[C@H]4C[C@]5(COC(=O)N5)C4)C[C@@H]2C3)cc1F (stereo in doubt) shows pIC50 of no less than 8?
Result: true

Ask: Could you verify whether the entry CC(C)(C)c1cccc([C@H]2[C@@H]3CN(C(=O)[C@H]4C[C@]5(COC(=O)N5)C4)C[C@@]32C)c1 (stereo in doubt) [Example 93] shows pIC50 of no less than 8?
Result: true

Ask: Could you verify whether the entry O=C1CCC2(CC(C(=O)N3CC[C@]4(c5cccc(OC(F)(F)F)c5)C[C@@H]4C3)C2)N1 (relative stereo) shows pIC50 of no less than 8?
Result: false

Ask: Could you verify whether the entry O=C1N[C@]2(CO1)C[C@H](C(=O)N1CCC3CC3(c3ccccc3)C1)C2 (mixture of isomers) shows pIC50 of no less than 8?
Result: false

Ask: Could you verify whether the entry Cc1cc(C23CC2CN(C(=O)[C@H]2C[C@]4(COC(=O)N4)C2)C3)ccc1C(F)(F)F (mixture of isomers) shows pIC50 of no less than 8?
Result: true

---

Exercise: for every item that follows, state its recorded pIC50.
molecular target: human MGL from HeLa cells (Homo sapiens (Human), UniProt Q99685); experiment: MGL in vitro activity assay ([glycerol-1,3-3H]-oleoyl glycerol cleavage, activated carbon filter); type: biochemical; settings: 300 nM [Glycerol-1,3-3H]-oleoyl glycerol, endogenously expressed MGL from HeLa cells, one hour incubation; read-out: MGL IC50
Units for pIC50: none; it is -log10 of a concentration expressed in mol/L.

Ask: Report pIC50 for CCc1ccc([C@H]2[C@@H]3CN(C(=O)[C@H]4C[C@]5(CCC(=O)N5)C4)C[C@@H]32)cc1 tested on human MGL from HeLa cells (Homo sapiens (Human), UniProt Q99685).
Result: 6.88

Ask: Report pIC50 for Cc1cc(C23CC2CN(C(=O)[C@H]2C[C@]4(COC(=O)N4)C2)C3)ccc1OC(F)(F)F (mixture of isomers) tested on human MGL from HeLa cells (Homo sapiens (Human), UniProt Q99685).
Result: 8.19

Ask: Report pIC50 for O=C1N[C@]2(CO1)C[C@H](C(=O)N1CC3CC3(c3ccccc3)C1)C2 (mixture of isomers) tested on human MGL from HeLa cells (Homo sapiens (Human), UniProt Q99685).
Result: 7.31

Ask: Report pIC50 for Cc1ccc([C@]23CCN(C(=O)[C@H]4C[C@]5(COC(=O)N5)C4)C[C@H]2C3)cc1F (stereo in doubt) tested on human MGL from HeLa cells (Homo sapiens (Human), UniProt Q99685).
Result: 7.68

Ask: Report pIC50 for Cc1cccc(C23CC2CN(C(=O)[C@H]2C[C@]4(COC(=O)N4)C2)C3)c1 (mixture of isomers) tested on human MGL from HeLa cells (Homo sapiens (Human), UniProt Q99685).
Result: 7.85

Ask: Report pIC50 for CC(C)(C)c1ccc(C23CCN(C(=O)[C@H]4C[C@]5(CCC(=O)N5)C4)CC2C3)cc1 (mixture of isomers) tested on human MGL from HeLa cells (Homo sapiens (Human), UniProt Q99685).
Result: 9.39

Ask: Report pIC50 for CC(C)(C)c1ccc([C@@]23C[C@@H]2CN(C(=O)[C@H]2C[C@]4(CCC(=O)N4)C2)C3)cc1 (stereo in doubt) tested on human MGL from HeLa cells (Homo sapiens (Human), UniProt Q99685).
Result: 7.64

Ask: Report pIC50 for CC(C)Cc1cccc([C@H]2[C@@H]3CN(C(=O)[C@H]4C[C@]5(COC(=O)N5)C4)C[C@@H]32)c1 tested on human MGL from HeLa cells (Homo sapiens (Human), UniProt Q99685).
Result: 8.82

Ask: Report pIC50 for CC(C)c1ccc([C@@]23C[C@@H]2CN(C(=O)[C@H]2C[C@]4(COC(=O)N4)C2)C3)cc1 (stereo in doubt) tested on human MGL from HeLa cells (Homo sapiens (Human), UniProt Q99685).
Result: 8.64

Ask: Report pIC50 for C[C@]12CN(C(=O)[C@H]3C[C@]4(COC(=O)N4)C3)C[C@H]1[C@@H]2c1ccc(C2CC2)cc1 (racemic) tested on human MGL from HeLa cells (Homo sapiens (Human), UniProt Q99685).
Result: 7.42

Ask: Report pIC50 for Cc1ccc([C@H]2[C@@H]3CN(C(=O)[C@H]4C[C@]5(CCC(=O)N5)C4)C[C@@H]32)cc1C tested on human MGL from HeLa cells (Homo sapiens (Human), UniProt Q99685).
Result: 6.75

Ask: Report pIC50 for Cc1ccc([C@H]2[C@@H]3CN(C(=O)[C@H]4C[C@]5(COC(=O)N5)C4)C[C@@H]32)cc1Cl tested on human MGL from HeLa cells (Homo sapiens (Human), UniProt Q99685).
Result: 7.77

Ask: Report pIC50 for CCc1ccc([C@H]2[C@@H]3CN(C(=O)[C@H]4C[C@]5(COC(=O)N5)C4)C[C@@H]32)cc1 tested on human MGL from HeLa cells (Homo sapiens (Human), UniProt Q99685).
Result: 7.60

Ask: Report pIC50 for O=C1N[C@]2(CO1)C[C@H](C(=O)N1CC3CC3(c3ccc(Oc4ccccc4)cc3)C1)C2 (mixture of isomers) tested on human MGL from HeLa cells (Homo sapiens (Human), UniProt Q99685).
Result: 8.77

Ask: Report pIC50 for CC1(c2cccc(C34CC3CN(C(=O)[C@H]3C[C@]5(COC(=O)N5)C3)C4)c2)CC1 (mixture of isomers) tested on human MGL from HeLa cells (Homo sapiens (Human), UniProt Q99685).
Result: 8.96

Ask: Report pIC50 for Cc1ccc([C@H]2[C@@H]3CN(C(=O)[C@H]4C[C@]5(COC(=O)N5)C4)C[C@@]32C)cc1OC(F)(F)F (racemic) tested on human MGL from HeLa cells (Homo sapiens (Human), UniProt Q99685).
Result: 8.39

Ask: Report pIC50 for O=C1N[C@]2(CO1)C[C@H](C(=O)N1CC[C@]3(c4cccc(OC(F)(F)F)c4)C[C@@H]3C1)C2 (stereo in doubt) tested on human MGL from HeLa cells (Homo sapiens (Human), UniProt Q99685).
Result: 8.38

Ask: Report pIC50 for Cc1ccccc1[C@H]1[C@@H]2CN(C(=O)[C@H]3C[C@]4(COC(=O)N4)C3)C[C@@H]21 tested on human MGL from HeLa cells (Homo sapiens (Human), UniProt Q99685).
Result: 6.82

Ask: Report pIC50 for O=C1CC[C@]2(C[C@H](C(=O)N3C[C@@H]4[C@H](C3)[C@H]4c3ccc(C(F)(F)F)cc3)C2)N1 tested on human MGL from HeLa cells (Homo sapiens (Human), UniProt Q99685).
Result: 6.69

Ask: Report pIC50 for Cc1ccc([C@H]2[C@@H]3CN(C(=O)[C@H]4C[C@]5(COC(=O)N5)C4)C[C@@H]32)cc1OC(F)(F)F tested on human MGL from HeLa cells (Homo sapiens (Human), UniProt Q99685).
Result: 8.28

Ask: Report pIC50 for O=C1N[C@]2(CO1)C[C@H](C(=O)N1CC3CC3(c3ccc(C4CC4)cc3)C1)C2 (mixture of isomers) tested on human MGL from HeLa cells (Homo sapiens (Human), UniProt Q99685).
Result: 8.36

Ask: Report pIC50 for CC(C)(C)c1cccc(C23CCN(C(=O)[C@H]4C[C@]5(COC(=O)N5)C4)CC2C3)c1 (mixture of isomers) tested on human MGL from HeLa cells (Homo sapiens (Human), UniProt Q99685).
Result: 11.14

Ask: Report pIC50 for O=C1N[C@]2(CO1)C[C@H](C(=O)N1C[C@@H]3[C@H](C1)[C@H]3c1cccc(OC(F)(F)F)c1)C2 tested on human MGL from HeLa cells (Homo sapiens (Human), UniProt Q99685).
Result: 7.68

Ask: Report pIC50 for CC(C)(C)c1cccc([C@H]2[C@@H]3CN(C(=O)[C@H]4C[C@]5(COC(=O)N5)C4)C[C@@]32C)c1 (stereo in doubt) [Example 99] tested on human MGL from HeLa cells (Homo sapiens (Human), UniProt Q99685).
Result: 9.19

Ask: Report pIC50 for O=C1CC[C@]2(C[C@H](C(=O)N3CCC4(c5cccc(OC(F)(F)F)c5)CC4C3)C2)N1 (mixture of isomers) tested on human MGL from HeLa cells (Homo sapiens (Human), UniProt Q99685).
Result: 8.32

Ask: Report pIC50 for CC1(c2ccc([C@@]34C[C@@H]3CN(C(=O)[C@H]3C[C@]5(CCC(=O)N5)C3)C4)cc2)CC1 (stereo in doubt) tested on human MGL from HeLa cells (Homo sapiens (Human), UniProt Q99685).
Result: 8.12
